# measuredOn: human A3 adenosine receptor (Homo sapiens)
# Sequence (P0DMS8 1-318): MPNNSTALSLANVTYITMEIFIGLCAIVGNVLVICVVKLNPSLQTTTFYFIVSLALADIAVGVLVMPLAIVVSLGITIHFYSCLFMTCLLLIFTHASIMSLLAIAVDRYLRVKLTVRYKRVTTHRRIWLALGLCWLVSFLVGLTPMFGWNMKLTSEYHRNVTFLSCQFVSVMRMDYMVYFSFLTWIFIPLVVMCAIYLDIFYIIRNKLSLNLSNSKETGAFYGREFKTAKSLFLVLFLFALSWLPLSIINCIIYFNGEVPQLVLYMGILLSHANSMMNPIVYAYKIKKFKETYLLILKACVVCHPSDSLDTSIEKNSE
# testMethodNotes: Radioligand binding, HEK293 cells expressing human A3 receptor
# conditionSet: compounds 33–52, NIH binding data
metricName: receptor selectivity class

Here's what some known entries look like.
1) Nc1nc(C#Cc2ccccc2)nc2c1ncn2[C@@H]1O[C@H](CO)[C@@H](O)[C@@H]1O :: A3 selective
2) Nc1ncnc2c1nc(C#Cc1ccccc1)n2[C@H]1C[C@H](O)[C@@H](CO)O1 :: not selective
3) Nc1nc(C#Cc2ccccc2)nc2c1ncn2[C@@H]1O[C@H](CO)[C@@H](O)[C@H]1O :: not selective
4) Nc1ncnc2c1nc(C#Cc1ccccc1)n2[C@@H]1O[C@H](CO)[C@@H](O)[C@H]1O :: A3 selective

As a next step, examine the compound that follows.
Indicate the recorded receptor selectivity class value for this compound: Nc1nc(CCc2ccccc2)nc2c1ncn2[C@@H]1O[C@H](CO)[C@@H](O)[C@H]1O
not selective

----------
metricName: IC50 (µM)
Form entry: value (µM) — number only.

Identify measured IC50 obtained with human A2A adenosine receptor (Homo sapiens) for OC[C@H]1O[C@@H](n2cnc3c(NCCCc4ccccc4)nc(Cl)nc32)[C@H](O)[C@@H]1O .
Sequence (P29274 whole entry): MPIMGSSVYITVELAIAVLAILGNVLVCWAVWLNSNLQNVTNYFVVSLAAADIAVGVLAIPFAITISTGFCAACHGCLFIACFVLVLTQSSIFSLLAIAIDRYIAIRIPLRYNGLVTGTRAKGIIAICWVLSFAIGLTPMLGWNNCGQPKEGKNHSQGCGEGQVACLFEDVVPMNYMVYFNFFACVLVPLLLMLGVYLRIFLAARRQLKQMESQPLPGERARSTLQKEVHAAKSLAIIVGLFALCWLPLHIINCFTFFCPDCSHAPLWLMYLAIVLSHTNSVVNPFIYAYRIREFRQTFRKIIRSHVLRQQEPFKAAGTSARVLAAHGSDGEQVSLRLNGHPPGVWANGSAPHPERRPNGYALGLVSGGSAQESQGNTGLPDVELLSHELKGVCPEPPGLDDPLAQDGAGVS
22

----------
# measuredOn: UniProt:P0DMS8
# testMethodNotes: Radioligand binding, HEK293 cells expressing human A3 receptor
# conditionSet: compounds 33–52, NIH binding data
metricName: activity class (active / inactive) in SAR and selectivity analysis

1) Nc1ncnc2c1nc(CCc1ccccc1)n2[C@H]1C[C@H](O)[C@@H](CO)O1 :: inactive
2) Nc1ncnc2c1nc(C#Cc1ccccc1)n2[C@@H]1O[C@H](CO)[C@@H](O)[C@H]1O :: active
3) Nc1nc(C#Cc2ccccc2)nc2c1ncn2[C@@H]1O[C@H](CO)[C@@H](O)[C@H]1O :: active
4) Nc1ncnc2c1nc(CCc1ccccc1)n2[C@@H]1O[C@H](CO)[C@@H](O)[C@H]1O :: inactive
